System: Calu-3
Assay: cell viability relative to DMSO; higher = less toxic
Settings: 72 h; 100 nM

{"MOLECULE": "CCN1CCC[C@H]1CNC(=O)c1c(O)c(Cl)cc(Cl)c1OC [raclopride]", "QUANTITY_UNIT": "%", "cell viability": 92.4}
{"MOLECULE": "COc1ccc(CCC(=O)c2c(O)cc(O[C@@H]3O[C@H](CO)[C@@H](O)[C@H](O)[C@H]3O[C@@H]3O[C@@H](C)[C@H](O)[C@@H](O)[C@H]3O)cc2O)cc1O [Neohesperidin dihydrochalcone (Nhdc)]", "QUANTITY_UNIT": "%", "cell viability": 102}
{"MOLECULE": "CC(=O)c1c(C)c2cnc(Nc3ccc(N4CCNCC4)cn3)nc2n(C2CCCC2)c1=O", "QUANTITY_UNIT": "%", "cell viability": 98.4}
{"MOLECULE": "CC(C)(C)Cn1c(N)nc2ccc(-c3[nH]c(C(C)(C)C)nc3-c3ccc(F)cc3)nc21", "QUANTITY_UNIT": "%", "cell viability": 85.5}
{"MOLECULE": "CCCCCC(C)N (configuration not stated)", "QUANTITY_UNIT": "%", "cell viability": 109}
{"MOLECULE": "O=C(Nc1ccccc1C(=O)NC1CCCCNC1=O)c1cc2ccccc2s1 (configuration not stated)", "QUANTITY_UNIT": "%", "cell viability": 101}
{"MOLECULE": "O=S(=O)(O)c1ccc(-c2c3nc(c(-c4ccc(S(=O)(=O)O)cc4)c4ccc([nH]4)c(-c4ccc(S(=O)(=O)O)cc4)c4nc(c(-c5ccc(S(=O)(=O)O)cc5)c5ccc2[nH]5)C=C4)C=C3)cc1", "QUANTITY_UNIT": "%", "cell viability": 109}

* * *

Property: cell viability; scope: individual compounds
System: Caco-2
Experiment: cell viability relative to DMSO; higher = less toxic
Settings: 72 h; 1000 nM

{"COMPOUND": "CCN(CC)C(=O)N[C@H]1C[C@@H]2c3cccc4[nH]cc(c34)C[C@H]2N(C)C1 [terguride]", "EXPERIMENTAL_SYSTEM": "Caco-2", "QUANTITY_UNIT": "%", "cell viability": 97.2}
{"COMPOUND": "O=C(c1c(F)ccc(NS(=O)(=O)N2CC[C@@H](F)C2)c1F)c1c[nH]c2ncc(-c3cnc(C4CC4)nc3)cc12", "EXPERIMENTAL_SYSTEM": "Caco-2", "QUANTITY_UNIT": "%", "cell viability": 91.7}
{"COMPOUND": "CC(C)(C)CCN1C[C@@H]2[C@@H](CNC(=O)c3cc(Cl)cc(Cl)c3)[C@@H]2C1", "EXPERIMENTAL_SYSTEM": "Caco-2", "QUANTITY_UNIT": "%", "cell viability": 92.8}
{"COMPOUND": "COc1ccc2c(OCc3nnc4ccc(-c5ccccc5)nn34)ccnc2c1", "EXPERIMENTAL_SYSTEM": "Caco-2", "QUANTITY_UNIT": "%", "cell viability": 100}

* * *

Tested on: Vero E6
Assay: drug sensitivity score (DSS) for viability; higher = more toxic; extreme values may be limits of the assay
Details: 72 h
EXPERIMENTAL_ENDPOINT: drug sensitivity score

{"COMPOUND": "CC(C)[C@H](C(=O)Nc1ccc(C(=O)NO)cc1)c1ccccc1", "RESULT": 18.9}
{"COMPOUND": "CC(C)(C=O)Cc1cc(C(C)(C)C)c(O)c(C(C)(C)C)c1", "RESULT": 0}
{"COMPOUND": "CS(=O)(=O)n1cc2c(n1)CN([C@H]1CO[C@H](c3cc(F)ccc3F)[C@@H](N)C1)C2", "RESULT": 0}
{"COMPOUND": "COc1cc(NC(C)CCCN)c2ncccc2c1 (centres undefined)", "RESULT": 0}
{"COMPOUND": "COC(=O)C1=C(C)NC(C)=C([N+](=O)[O-])[C@@H]1c1ccccc1C(F)(F)F (racemic) [BAY-K-8644-(+/-)]", "RESULT": 0}
{"COMPOUND": "O=C(O)CCCCC(=O)O", "RESULT": 0}
{"COMPOUND": "Cc1ccc(C[N+](C)(C)C)o1 [5-methylfurmethiodide]", "RESULT": 0}
{"COMPOUND": "CO[C@H](C(=O)[C@@H](O)[C@@H](C)O)[C@@H]1Cc2cc3cc(O[C@H]4C[C@@H](O[C@H]5C[C@@H](O)[C@H](O)[C@@H](C)O5)[C@@H](O)[C@@H](C)O4)c(C)c(O)c3c(O)c2C(=O)[C@H]1O[C@H]1C[C@@H](O[C@H]2C[C@@H](O[C@H]3C[C@](C)(O)[C@H](O)[C@@H](C)O3)[C@H](O)[C@@H](C)O2)[C@H](O)[C@@H](C)O1", "RESULT": 9.2}
{"COMPOUND": "CNC(=O)[C@@H](NC(=O)[C@H](CC(C)C)[C@H](O)C(=O)NO)C(C)(C)C", "RESULT": 0}
